Test system: Aeromonas hydrophila
Assay: Antibacterial activity against Aeromonas hydrophila by micro-broth dilution method
Format: functional
observedProperty: MIC (µg/mL)

Look over these answered cases.
compound: COc1ccc(-c2csc(N3N=C(c4cccs4)CC3c3ccccn3)n2)cc1 (stereo not given)
MIC (µg/mL): 62.5
--
compound: c1ccc(-c2csc(N3N=C(c4cccs4)CC3c3ccccn3)n2)cc1 (stereo not given)
MIC (µg/mL): 62.5

[a] Clc1ccc(-c2csc(N3N=C(c4cccs4)CC3c3ccncc3)n2)cc1 (stereo not given)
[b] O=[N+]([O-])c1ccc(-c2csc(N3N=C(c4cccs4)CC3c3ccccn3)n2)cc1 (stereo not given)
[c] Clc1ccc(-c2csc(N3N=C(c4cccs4)CC3c3cccnc3)n2)cc1 (stereo not given)
Parameters: sort_field (MIC), sort_dir (desc). Give your ranking as a list of the labels in the requested order.
c, b, a
(c: 250 µg/mL, b: 125 µg/mL, a: 62.5 µg/mL)

###

Test system: Staphylococcus aureus
Experiment: Antibacterial activity against Staphylococcus aureus NRRL B767 by micro-broth dilution method
Format: functional
observedProperty: MIC (µg/mL)

Below: 2 compounds and their reported MIC.
compound: Cc1ccc(-c2csc(N3N=C(c4cccs4)CC3c3ccccn3)n2)cc1 (stereo not given)
MIC (µg/mL): 250
//
compound: c1ccc(-c2csc(N3N=C(c4cccs4)CC3c3ccncc3)n2)cc1 (stereo not given)
MIC (µg/mL): 15.6

[I] Cc1ccc(-c2csc(N3N=C(c4cccs4)CC3c3ccncc3)n2)cc1 (stereo not given)
[II] Clc1ccc(-c2csc(N3N=C(c4cccs4)CC3c3ccccn3)n2)cc1 (stereo not given)
Name the one with the greater MIC value, either I or II as given. In your reply, give the label of the chosen option.
II

###

System: Escherichia coli
Assay: Antibacterial activity against Escherichia coli NRRL B3704 by microbroth dilution method
Assay type: functional
observedProperty: MIC (µg/mL)

See these solved cases before continuing.
compound: O=[N+]([O-])c1ccc(-c2csc(N3N=C(c4cccs4)CC3c3ccncc3)n2)cc1 (stereo not given)
unitInfo: µg/mL
experimentalValue: 125

compound: Clc1ccc(-c2csc(N3N=C(c4cccs4)CC3c3ccncc3)n2)cc1 (stereo not given)
unitInfo: µg/mL
experimentalValue: 125

compound: COc1ccc(-c2csc(N3N=C(c4cccs4)CC3c3ccncc3)n2)cc1 (stereo not given)
unitInfo: µg/mL
experimentalValue: 125

compound: COc1ccc(-c2csc(N3N=C(c4cccs4)CC3c3cccnc3)n2)cc1 (stereo not given)
unitInfo: µg/mL
experimentalValue: 250

compound: c1ccc(-c2csc(N3N=C(c4cccs4)CC3c3ccccn3)n2)cc1 (stereo not given)
unitInfo: µg/mL
experimentalValue: 125

[A] O=[N+]([O-])c1ccc(-c2csc(N3N=C(c4cccs4)CC3c3ccccn3)n2)cc1 (stereo not given)
[B] c1ccc(-c2csc(N3N=C(c4cccs4)CC3c3ccncc3)n2)cc1 (stereo not given)
Field: lower MIC | Options: A / B State the label of the item chosen.
A
(A: 125 µg/mL, B: 250 µg/mL)

[a] Clc1ccc(-c2csc(N3N=C(c4cccs4)CC3c3cccnc3)n2)cc1 (stereo not given)
[b] COc1ccc(-c2csc(N3N=C(c4cccs4)CC3c3ccccn3)n2)cc1 (stereo not given)
Which of these two has the smaller recorded MIC: a or b ? Your choice should be expressed through its label.
b
(b: 125 µg/mL, a: 250 µg/mL)

###

Tested on: Aeromonas hydrophila
Assay: Antibacterial activity against Aeromonas hydrophila by micro-broth dilution method
Type: functional
observedProperty: MIC (µg/mL)

Worked set:
molecule: COc1ccc(-c2csc(N3N=C(c4cccs4)CC3c3ccncc3)n2)cc1 (stereo not given)
MIC / µg/mL: 125

molecule: O=[N+]([O-])c1ccc(-c2csc(N3N=C(c4cccs4)CC3c3cccnc3)n2)cc1 (stereo not given)
MIC / µg/mL: 31.2

molecule: Cc1ccc(-c2csc(N3N=C(c4cccs4)CC3c3ccncc3)n2)cc1 (stereo not given)
MIC / µg/mL: 125

molecule: O=[N+]([O-])c1ccc(-c2csc(N3N=C(c4cccs4)CC3c3ccncc3)n2)cc1 (stereo not given)
MIC / µg/mL: 125

molecule: Cc1ccc(-c2csc(N3N=C(c4cccs4)CC3c3ccccn3)n2)cc1 (stereo not given)
MIC / µg/mL: 62.5

[P] c1ccc(-c2csc(N3N=C(c4cccs4)CC3c3ccncc3)n2)cc1 (stereo not given)
[Q] c1ccc(-c2csc(N3N=C(c4cccs4)CC3c3cccnc3)n2)cc1 (stereo not given)
Returns the identifier with the smallest measured MIC among P and Q . Give the label under which the chosen entry appears.
P
(P: 31.2 µg/mL, Q: 250 µg/mL)

[A] COc1ccc(-c2csc(N3N=C(c4cccs4)CC3c3cccnc3)n2)cc1 (stereo not given)
[B] Cc1ccc(-c2csc(N3N=C(c4cccs4)CC3c3cccnc3)n2)cc1 (stereo not given)
Of A and B , whose reported MIC is the larger number? Write down the label of the entry you select.
B
(B: 250 µg/mL, A: 125 µg/mL)

###

Tested on: Staphylococcus aureus
Assay: Antibacterial activity against Staphylococcus aureus NRRL B767 by micro-broth dilution method
Format: functional
observedProperty: MIC (µg/mL)

molecule: O=[N+]([O-])c1ccc(-c2csc(N3N=C(c4cccs4)CC3c3ccccn3)n2)cc1 (stereo not given)
target: Staphylococcus aureus
MIC [µg/mL]: 250

molecule: COc1ccc(-c2csc(N3N=C(c4cccs4)CC3c3ccncc3)n2)cc1 (stereo not given)
target: Staphylococcus aureus
MIC [µg/mL]: 125

[a] Cc1ccc(-c2csc(N3N=C(c4cccs4)CC3c3cccnc3)n2)cc1 (stereo not given)
[b] Clc1ccc(-c2csc(N3N=C(c4cccs4)CC3c3ccncc3)n2)cc1 (stereo not given)
[c] Clc1ccc(-c2csc(N3N=C(c4cccs4)CC3c3cccnc3)n2)cc1 (stereo not given)
// ranking: key=MIC, reverse=True Submit the labels in the order that the ranking request calls for.
c, a, b

###

Tested on: Escherichia coli
Assay: Antibacterial activity against Escherichia coli NRRL B3704 by microbroth dilution method
Format: functional
observedProperty: MIC (µg/mL)

compound: O=[N+]([O-])c1ccc(-c2csc(N3N=C(c4cccs4)CC3c3cccnc3)n2)cc1 (stereo not given)
unitInfo: µg/mL
experimentalValue: 250

compound: c1ccc(-c2csc(N3N=C(c4cccs4)CC3c3cccnc3)n2)cc1 (stereo not given)
unitInfo: µg/mL
experimentalValue: 250

compound: Cc1ccc(-c2csc(N3N=C(c4cccs4)CC3c3ccccn3)n2)cc1 (stereo not given)
unitInfo: µg/mL
experimentalValue: 125

[a] Clc1ccc(-c2csc(N3N=C(c4cccs4)CC3c3ccccn3)n2)cc1 (stereo not given)
[b] Cc1ccc(-c2csc(N3N=C(c4cccs4)CC3c3cccnc3)n2)cc1 (stereo not given)
Name the one with the greater MIC value, either a or b as given. Reply with the label of the item you choose.
b

###

System: Staphylococcus aureus
Assay: Antibacterial activity against Staphylococcus aureus NRRL B767 by micro-broth dilution method
Type: functional
observedProperty: MIC (µg/mL)

compound: O=[N+]([O-])c1ccc(-c2csc(N3N=C(c4cccs4)CC3c3ccncc3)n2)cc1 (stereo unspecified)
MIC [µg/mL]: 125

compound: COc1ccc(-c2csc(N3N=C(c4cccs4)CC3c3ccccn3)n2)cc1 (stereo unspecified)
MIC [µg/mL]: 125

compound: O=[N+]([O-])c1ccc(-c2csc(N3N=C(c4cccs4)CC3c3cccnc3)n2)cc1 (stereo unspecified)
MIC [µg/mL]: 31.2

[1] c1ccc(-c2csc(N3N=C(c4cccs4)CC3c3cccnc3)n2)cc1 (stereo unspecified)
[2] COc1ccc(-c2csc(N3N=C(c4cccs4)CC3c3cccnc3)n2)cc1 (stereo unspecified)
Among 1 and 2 , whose measured MIC is the smaller figure? Mark your selection by writing its label.
1
(1: 125 µg/mL, 2: 250 µg/mL)
